Cited source: ChEMBL document CHEMBL1144308

molecular target: Cyclin-dependent kinase 1/cyclin B1 (Homo sapiens); assay: Inhibitory concentration tested against Cyclin dependant kinase 1-cyclinB
Sequence (P06493 whole entry): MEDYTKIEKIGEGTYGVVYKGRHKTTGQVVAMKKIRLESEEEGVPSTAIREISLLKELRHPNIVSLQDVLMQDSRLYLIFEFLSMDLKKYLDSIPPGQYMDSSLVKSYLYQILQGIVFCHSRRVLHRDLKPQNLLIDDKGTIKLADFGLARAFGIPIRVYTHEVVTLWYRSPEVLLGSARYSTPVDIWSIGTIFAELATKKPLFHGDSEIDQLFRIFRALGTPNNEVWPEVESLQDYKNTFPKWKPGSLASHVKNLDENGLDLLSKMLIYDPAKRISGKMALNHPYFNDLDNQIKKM
Sequence (P14635 whole entry, further chain): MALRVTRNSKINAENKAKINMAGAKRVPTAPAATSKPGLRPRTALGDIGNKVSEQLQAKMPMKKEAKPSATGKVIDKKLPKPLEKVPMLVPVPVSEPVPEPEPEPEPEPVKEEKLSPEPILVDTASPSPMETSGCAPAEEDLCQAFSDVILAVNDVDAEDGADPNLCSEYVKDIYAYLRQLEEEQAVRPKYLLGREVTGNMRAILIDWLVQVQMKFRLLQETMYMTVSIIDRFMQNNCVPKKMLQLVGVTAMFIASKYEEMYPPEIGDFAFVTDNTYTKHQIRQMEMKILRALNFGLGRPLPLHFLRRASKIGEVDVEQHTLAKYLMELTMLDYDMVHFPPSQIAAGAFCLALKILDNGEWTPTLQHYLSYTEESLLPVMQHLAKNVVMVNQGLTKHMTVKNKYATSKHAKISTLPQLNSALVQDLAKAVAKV
# reported IC50; entries follow
measuredEndpoint: IC50 (µM)

• Oc1ccc2oc3ncc(Br)c(-c4ccccc4)c3c2c1 = 70.7
• CC(=O)c1cnc2oc3ccc(O)cc3c2c1-c1ccccc1 = 4.2
• COc1cnc2oc3ccc(O)cc3c2c1-c1ccccc1 = 64.3

###

target: Cyclin-dependent kinase 5/CDK5 activator 1 (Homo sapiens, UniProt Q00535); assay: Inhibitory concentration tested against Cyclin-dependent kinase 5
Sequence (Q00535 whole entry): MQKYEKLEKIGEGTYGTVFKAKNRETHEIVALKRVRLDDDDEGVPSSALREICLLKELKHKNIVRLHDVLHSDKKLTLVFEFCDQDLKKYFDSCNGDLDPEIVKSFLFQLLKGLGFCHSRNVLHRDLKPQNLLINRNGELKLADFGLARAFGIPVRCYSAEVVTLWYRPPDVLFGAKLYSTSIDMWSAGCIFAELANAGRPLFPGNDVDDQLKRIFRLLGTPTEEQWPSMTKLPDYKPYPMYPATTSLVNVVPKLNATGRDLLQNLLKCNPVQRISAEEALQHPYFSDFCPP
Sequence (Q15078 whole entry, further chain): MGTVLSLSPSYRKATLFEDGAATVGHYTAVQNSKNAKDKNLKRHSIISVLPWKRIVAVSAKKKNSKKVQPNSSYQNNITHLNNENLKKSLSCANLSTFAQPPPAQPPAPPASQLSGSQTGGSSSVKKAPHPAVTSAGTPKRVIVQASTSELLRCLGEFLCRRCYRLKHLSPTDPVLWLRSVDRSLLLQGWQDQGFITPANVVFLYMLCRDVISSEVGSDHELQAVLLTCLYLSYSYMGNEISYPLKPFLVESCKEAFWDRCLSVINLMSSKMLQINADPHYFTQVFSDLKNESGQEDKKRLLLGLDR
As shown below, each of these compounds has a reported IC50 value.
measuredEndpoint: IC50 (µM)

• COc1cnc2oc3ccc(O)cc3c2c1-c1ccccc1 = 6.3
• CCOc1cnc2oc3ccc(O)cc3c2c1-c1ccccc1 = 5.9
